Quick list: pIC50 per entry.
- TESTED SYSTEM: GTPase KRas [1-169,G12C,C118A] (Homo sapiens, UniProt P01116, C118A/G12C)
- Construct: 1-169
- Sequence (P01116 1-169 G12C/C118A): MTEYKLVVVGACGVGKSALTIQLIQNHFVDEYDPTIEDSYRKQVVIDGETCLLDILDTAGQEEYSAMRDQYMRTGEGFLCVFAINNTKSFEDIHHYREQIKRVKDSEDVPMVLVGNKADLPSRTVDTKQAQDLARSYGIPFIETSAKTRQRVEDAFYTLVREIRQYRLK
- RUN DESCRIPTION: Coupled Nucleotide Exchange Assay (20 hours)
pIC50: −log10 of the molar value.
VALUE KIND: pIC50

{"SMILES STRING": "Cc1ccnc(C(C)C)c1-n1c(=O)nc(N2CCN(C(=O)COc3c(F)cccc3F)C[C@@H]2C)c2cc(Cl)c(-c3ccccc3F)nc21", "VALUE KIND": "pIC50", "ASSAY VALUE": 4.62}
{"SMILES STRING": "Cc1ccnc(C(C)C)c1-n1c(=O)nc(N2CCN(C(=O)C=[N+]=[N-])C[C@@H]2C)c2cc(Cl)c(-c3ccccc3F)nc21", "VALUE KIND": "pIC50", "ASSAY VALUE": 6.27}
{"SMILES STRING": "CC(=O)C(=O)N1CCN(c2nc(=O)n(-c3c(C)ccnc3C(C)C)c3nc(-c4ccccc4F)c(Cl)cc23)[C@@H](C)C1", "VALUE KIND": "pIC50", "ASSAY VALUE": 4.50}
{"SMILES STRING": "Cc1ccnc(C(C)C)c1-n1c(=O)nc(N2CCN(C(=O)C=O)C[C@@H]2C)c2cc(Cl)c(-c3ccccc3F)nc21", "VALUE KIND": "pIC50", "ASSAY VALUE": 7.41}
